test system: CAKI-1; assay: NCI tumour cell line growth inhibition, 48 h
Activity calls are given as the source filed them. No stated cut-off is given here; in the data, active = GI50 up to about 1.1 µM and inactive = higher.
Result category, one only: active, inactive

Cc1cc2nc(N3C(=O)/C(=C/c4cccc([N+](=O)[O-])c4)N=C3c3ccccc3)sc2cc1C; inactive
Cc1ccc(C2=[N+]([O-])c3ccccc3C2=O)cc1; inactive

Lookup: What did the test return for `CCOc1cc(/C=C2\N=C(c3ccccc3)N(c3nc4ccccc4s3)C2=O)ccc1O` ?
Found: inactive

###

Exercise: for every item that follows, state its recorded GI50.
tested on: NCI-H23; experiment: NCI tumour cell line growth inhibition, 48 h
Active and inactive are the calls of the source. No stated cut-off is given here; in the data, active = GI50 up to about 1.1 µM and inactive = higher.

Below, 2 compounds whose answers are already recorded.
C=C(c1ccccc1)C1ON(C)CCc2cc(OC)c(OC)cc21 (stereo not drawn); 66.2 µM (inactive)
O=C(CSc1nnc(-c2ccc(/N=C\c3ccc(Cl)cc3)cc2)o1)Nc1cccc([N+](=O)[O-])c1; > 100 µM (inactive)

Lookup: Could you please provide reported GI50 for `Cc1ccc(S(=O)(=O)NNCNC(=O)c2ccccc2)cc1` ? Thanks!
Found: > 100 µM (inactive)

###

system: CAKI-1; assay: NCI tumour cell line growth inhibition, 48 h
Active and inactive are the calls of the source. No stated cut-off is given here; in the data, active = GI50 up to about 1.1 µM and inactive = higher.
Exercise: for every item that follows, state its recorded GI50.

COC1=CC(=O)C2=C(C[C@@]3(C)C(=C2)C(CO)=CC[C@H]3O)C1=O; 73.3 µM (inactive)

Need GI50 for each of these compounds.
1. O=c1cc(NNc2cccc(F)c2)[nH]c(=O)[nH]1
2. c1cncc(C2(c3cc4ccccc4[nH]3)COCO2)c1 (stereo not drawn)

Found:
1. 16.4 µM (inactive)
2. > 100 µM (inactive)

Need GI50 for each of these compounds.
1. CSc1nc(NC2OCC(OC(C)=O)C(OC(C)=O)C2OC(C)=O)c(/N=C\C=N\c2c(NC3OCC(OC(C)=O)C(OC(C)=O)C3OC(C)=O)nc(SC)[nH]c2=O)c(=O)[nH]1 (stereo not drawn)
2. O=C(O)CC1C(=O)OC2C3COC(=O)c4cc(O)c(O)c(O)c4-c4c(cc(O)c(O)c4O)C(=O)OC2C(OC(=O)c2cc(O)c(O)c4c2C1C(O)C(=O)O4)C(OC(=O)c1cc(O)c(O)c(O)c1)O3 (stereo not drawn)
3. COc1cc2c(cc1O)Cc1c-2[n+](C)cc2cc(OC)c(OC)cc12
4. O=C(CCc1ccc(O)cc1)NCCCNC(=O)CCc1ccc(O)cc1

Found:
1: > 100 µM (inactive); 2: 17.3 µM (inactive); 3: 25.8 µM (inactive); 4: > 100 µM (inactive)

Need GI50 for each of these compounds.
1. CSCCCNC(=O)c1csc(-c2csc(C(CNC(=O)OC(C)(C)C)CNC(=O)OC(C)(C)C)n2)n1
2. CN(CC(=O)O)c1ncc2c(n1)-c1ccccc1OC2
3. Cc1ccc2nc(NC(=O)C(=O)C3C(=O)NC(=S)NC3=O)sc2c1
4. Cc1nc2cc(Nc3ccccc3C(=O)O)ccc2s1
5. COC(=O)c1cc(-c2ccc3ccccc3c2)nc(O)c1C#N
6. CCOC(=O)NN(C(=O)OCC)C(C(=O)c1ccccc1)N(NC(=O)OCC)C(=O)OCC

Found:
1: 59.6 µM (inactive); 2: > 100 µM (inactive); 3: > 100 µM (inactive); 4: > 100 µM (inactive); 5: > 100 µM (inactive); 6: > 100 µM (inactive)

###

Exercise: for every item that follows, state its recorded GI50.
tested on: HL-60; assay: NCI tumour cell line growth inhibition, 48 h
Calls of active or inactive are those of the source. Rule as the data show it: active = GI50 up to about 1.1 µM and inactive = higher.

OCC(CCc1c[nH]c2ccccc12)c1c[nH]c2ccccc12 (stereo not given); 8.95 µM (inactive)
COc1ccc(C[C@H](N)C(=O)N2C[C@H](CO)C[C@H](n3cnc4c(N(C)C)ncnc43)C2)cc1; 73.5 µM (inactive)
CCn1cc(C(=O)O)c(=O)c2cc(F)c(N3CCNCC3)nc21 [ENOXACIN]; > 100 µM (inactive)
O=C1CSC(C(/N=N/c2ccc(Cl)cc2)c2nc3ccccc3[nH]2)=N1 (stereo not given); 51.6 µM (inactive)

Let us examine a further case.
Lookup: Could you please provide reported GI50 for COC(=O)/C(=N\NC(=O)c1ccccc1O)C(C#N)c1ccc(Cl)cc1 (stereo not given) ? Thanks!
Found: 24.9 µM (inactive)

###

system: SNB-75; test: NCI tumour cell line growth inhibition, 48 h
Active and inactive are the calls of the source. No stated cut-off is given here; in the data, active = GI50 up to about 1.1 µM and inactive = higher.
Result category, one only: TRUE = active, FALSE = inactive

Lookup: What did the test return for COC(=O)/C=C1\C(CO[Si](C)(C)C(C)(C)C)OC(n2ccc(=O)[nH]c2=O)C1O (centres undefined) ?
Found: FALSE

Lookup: What did the test return for `C[C@@H]1C[C@@]2(O[C@@H]2C)C(=O)O[C@@H]2CCN3CC=C(COC(=O)[C@]1(C)O)[C@H]23` ?
Found: FALSE

Lookup: What did the test return for `COc1ccc2c(c1)CN([C@@H](C)[C@H]1CC[C@H]3[C@@H]4CC[C@H]5C[C@@H](O)CC[C@]5(C)[C@H]4CC[C@]13C)CO2` ?
Found: FALSE

Lookup: What did the test return for `O=C(NCc1ccccc1)c1cc2cc(O)c(O)cc2cn1` ?
Found: FALSE

Lookup: What did the test return for `COc1ccc2c(c1)[C@@H](NC(C)=O)CCc1cc(OC)c(OC)c(OC)c1-2` ?
Found: TRUE

Lookup: What did the test return for CC(C)C1=CC23CCC4C(C)(C(=O)O)CCCC4(C)C2CC1C1C(=O)N(c2ccccc2)C(=O)C13 (centres undefined) ?
Found: FALSE

Lookup: What did the test return for `O=C(O)CNS(=O)(=O)c1ccc(NC(=O)c2ccccc2[N+](=O)[O-])cc1` ?
Found: FALSE

Lookup: What did the test return for `COc1ccc(-n2c(CCCC(=O)O)nc3c2C(=O)c2ccccc2C3=O)cc1` ?
Found: FALSE

Lookup: What did the test return for COc1cc(COC(=O)N2CSCC2C(=O)O)c([N+](=O)[O-])cc1OC (centres undefined) ?
Found: FALSE

###

tested on: SW-620; assay: NCI tumour cell line growth inhibition, 48 h
The source made the active and inactive calls. No stated cut-off is given here; in the data, active = GI50 up to about 1.1 µM and inactive = higher.
Result category, one only: active, inactive

COC1CN(C)/C(=N\c2cccc3ccccc23)S1 (configuration not stated); inactive
O=C(C[C@@H]1NCCC[C@H]1O)Cn1cnc2cc(Br)c(Cl)cc2c1=O; active

Lookup: What did the test return for CCCCCCCCCCCCCCCC1(OC)C[N+](C)(C)CCO1 (configuration not stated) ?
Found: inactive

Lookup: What did the test return for `Brc1c(C#CCC2CCCCC2)ccc(C#CCC2CCCCC2)c1Br` ?
Found: inactive

Lookup: What did the test return for `S=C1N=C(Cl)/C(=C\c2ccco2)N1` ?
Found: inactive

Lookup: What did the test return for `CC(C)/C(Cl)=N/OC(NC(=O)Nc1ccc(Cl)c(Cl)c1)(C(F)(F)F)C(F)(F)F` ?
Found: inactive

Lookup: What did the test return for CC(=O)NC1=C(C)C(=O)c2c(nc3n2CCC3O)C1=O (configuration not stated) ?
Found: inactive

Lookup: What did the test return for `Cc1ccc(S(=O)(=O)Oc2coc(CO)cc2=O)cc1` ?
Found: inactive

Lookup: What did the test return for `CCCc1c[nH]c(-c2ccc(-c3cc(CCC)c(C=O)[nH]3)s2)c1` ?
Found: inactive

Lookup: What did the test return for `CC(=O)c1c(O)cc(O)c(-c2c(C)cc(O)c3c2C(=O)c2cccc(O)c2C3=O)c1O` ?
Found: inactive

Lookup: What did the test return for `O=c1cc(NNc2cccc(F)c2)[nH]c(=O)[nH]1` ?
Found: inactive

Lookup: What did the test return for `CCOc1ccc2c(ccc(/C=C/c3cc(C)c4cccnc4c3O)[n+]2C)c1` ?
Found: active

Lookup: What did the test return for COc1cc(C(O)c2ccc3c(c2)OCO3)cc(OC)c1OC (configuration not stated) ?
Found: inactive

Lookup: What did the test return for `O=C1CCCCN1` ?
Found: inactive

Lookup: What did the test return for CSc1nc2c(nc(N)n2C2OC(CO)C(O)C(O)C2O)c(=O)[nH]1 (configuration not stated) ?
Found: inactive

Lookup: What did the test return for `COC(=O)NN=C1C(C)(C)C(=NNC(=O)OC)C1(C)C` ?
Found: inactive

Lookup: What did the test return for `O=C(Nc1ccccc1)c1cc2c(cc1Cl)Sc1nccn1S2(=O)=O` ?
Found: inactive

Lookup: What did the test return for `CSc1scc2c1/C(=N/NC(N)=O)CCC2` ?
Found: inactive

Lookup: What did the test return for `O=C1Cc2c(-c3ccccc3)cc(-c3ccccc3)nc2-c2ccccc2N1` ?
Found: inactive

###

test system: SK-MEL-28; assay: NCI tumour cell line growth inhibition, 48 h
Calls of active or inactive are those of the source. Rule as the data show it: active = GI50 up to about 1.1 µM and inactive = higher.
RESULT TYPE: GI50

Need GI50 for each of these compounds.
1. CC(=O)OCC1OC(n2c(N)c(C#N)c(-c3ccccc3)c(C#N)c2=S)C(OC(C)=O)C(OC(C)=O)C1OC(C)=O (stereo unspecified)
2. C/C1=C\CC[C@@]2(C)O[C@@H]2C[C@@H]2[C@H](C/C(C)=C/CC1)OC(=O)[C@]21CO1
3. OCCN(CCO)c1ccc2c(-c3ccccc3)cc(N(CCO)CCO)nc2n1
4. O=NN1C(c2ccccc2)CNC(=O)CC1c1ccccc1 (stereo unspecified)

Found:
1: > 100 µM (inactive); 2: > 100 µM (inactive); 3: > 100 µM (inactive); 4: 57.3 µM (inactive)

Need GI50 for each of these compounds.
1. CCOC(=O)NN(C(=O)OCC)C(C(=O)c1ccccc1)N(NC(=O)OCC)C(=O)OCC
2. OC(CC(CC(O)(C(F)(F)Cl)C(F)(F)Cl)=NNc1ccccc1)(C(F)(F)Cl)C(F)(F)Cl

Found:
["> 100 µM (inactive)", "2.92 µM (inactive)"]

The reported measurements were obtained from ChEMBL document CHEMBL1201862.
